Assay Method Text: Aqueous solubility of the compound in phosphate buffer at pH 6.5
Format: physicochemical
Cond: phosphate buffer, read-out: solubility
Entries and their solubility
Give your result in µM as a bare value.

>>> numeric_readout("CCc1ccc(Nc2cc(C)nc3ncnn23)cc1")
25

Please report the recorded solubility for "C#Cc1ccc(Nc2cc(C)nc3ncnn23)cc1" . 100

Okay, and "Cc1cc(Nc2ccc(S(F)(F)(F)(F)F)cc2)n2ncnc2n1" ? 71

Also "Cc1cc(Nc2ccc(N(C)C)cc2)n2ncnc2n1" ? 93

Would you kindly repeat that for "Cc1cc(Nc2ccc(C(C)C)cc2)n2ncnc2n1" ? 47

Next entry: "CCCCc1ccc(Nc2cc(C)nc3ncnn23)cc1" 11

How about this compound: "Cc1cc(Nc2ccc3ccccc3c2)n2ncnc2n1" 45

Attribution: ChEMBL document CHEMBL1781999
